# Test system: S. aureus strain ATCC 13709 (methicillin-susceptible)
# ASSAY_DETAILS: Murine model for lethal bacteremic peritonitis
# Format: in vivo, female Swiss-Webster mice
# CONDITION_SET: Staphylococcus aureus, ATCC13709; Dose 1.25 mg/kg, SC, 72 h; read-out: Survivors (converted)
Counter-ions that a name gives are not always drawn.
REPORTED_PROPERTY: responders at 1.25 mg/kg (%)
The reply should be a number in %, with the unit left off.

NCCSCc1cnccc1SC1=C(C(=O)O)N2C(=O)[C@@H](NC(=O)/C(=N\O)c3nc(N)sc3Cl)[C@H]2SC1 [Cmpd 16, trifluoroacetic acid salt]: 55.6
Nc1nc(/C(=N/O)C(=O)N[C@@H]2C(=O)N3C(C(=O)O)=C(Sc4ccncc4SCCNC=O)CS[C@H]23)c(Cl)s1 [Cmpd 64, trifluoroacetic acid salt]: 40

Quick one: responders at 1.25 mg/kg for N=C(N)SCc1cnccc1SC1=C(C(=O)O)N2C(=O)[C@@H](NC(=O)/C(=N\O)c3csc(N)n3)[C@H]2SC1 [Cmpd 3, trifluoroacetic acid salt] ?
70

* * *

Structures can show the parent of a compound that is named as a salt.
The next entries give measured MIC for E. faecium A491(Amp^R).
The reply should be a number in µg/mL, with the unit left off.

Worked examples, 5 compounds total:
CN(C)C(=O)[C@@H](N)CSCc1cnccc1SC1=C(C(=O)O)N2C(=O)[C@@H](NC(=O)/C(=N\O)c3nc(N)sc3Cl)[C@H]2SC1 [Cmpd 58, trifluoroacetic acid salt]: 16
NCC(O)CSCc1cnccc1SC1=C(C(=O)O)N2C(=O)[C@@H](NC(=O)/C(=N\O)c3nc(N)sc3Cl)[C@H]2SC1 (stereo partly shown) [Cmpd 32, trifluoroacetic acid salt]: 8
NCCSc1cnccc1SC1=C(C(=O)O)N2C(=O)[C@@H](NC(=O)/C(=N\O)c3nc(N)sc3Cl)[C@H]2SC1 [Cmpd 30, trifluoroacetic acid salt]: 8
Nc1nc(/C(=N/O)C(=O)N[C@@H]2C(=O)N3C(C(=O)O)=C(Sc4ccncc4CSC4CCNC4)CS[C@H]23)c(Cl)s1 (stereo partly shown) [Cmpd 42, trifluoroacetic acid salt]: 4
Nc1nc(/C(=N/O)C(=O)N[C@@H]2C(=O)N3C(C(=O)O)=C(Sc4ccncc4CSC4CCNCC4)CS[C@H]23)c(Cl)s1 [Cmpd 52, trifluoroacetic acid salt]: 4

Quick one: MIC for CN(C)C(=O)CNCCSCc1cnccc1SC1=C(C(=O)O)N2C(=O)[C@@H](NC(=O)/C(=N\O)c3nc(N)sc3Cl)[C@H]2SC1 [Cmpd 61, trifluoroacetic acid salt] ?
16

Query NCC#CCc1cnccc1SC1=C(C(=O)O)N2C(=O)[C@@H](NC(=O)/C(=N\O)c3nc(N)sc3Cl)[C@H]2SC1 [Cmpd 48, trifluoroacetic acid salt] next
32

Query NC(=O)CSCc1cnccc1SC1=C(C(=O)O)N2C(=O)[C@@H](NC(=O)/C(=N\O)c3nc(N)sc3Cl)[C@H]2SC1 [Cmpd 39] next
32

* * *

# System: S. aureus ATCC 29213
Where a name gives a salt, the structure may show the parent alone.
REPORTED_PROPERTY: MIC (µg/mL)
The reply should be a number in µg/mL, with the unit left off.

Worked examples, 4 compounds total:
NCCSCc1cnccc1SC1=C(C(=O)O)N2C(=O)[C@@H](NC(=O)/C(=N\OCCF)c3nc(N)sc3Cl)[C@H]2SC1.O=C(O)C(F)(F)F [Cmpd 33]: 0.25
NCCCOCc1cnccc1SC1=C(C(=O)O)N2C(=O)[C@@H](NC(=O)/C(=N\O)c3nc(N)sc3Cl)[C@H]2SC1 [Cmpd 47, trifluoroacetic acid salt]: 1
Nc1nc(/C(=N/O)C(=O)N[C@@H]2C(=O)N3C(C(=O)O)=C(Sc4ccncc4CSC4CCNC4)CS[C@H]23)cs1 (stereo partly drawn) [Cmpd 17, trifluoroacetic acid salt]: 0.25
NCC(=O)NCCCSCc1cnccc1SC1=C(C(=O)O)N2C(=O)[C@@H](NC(=O)/C(=N\O)c3nc(N)sc3Cl)[C@H]2SC1 [Cmpd 35, trifluoroacetic acid salt]: 0.25

Next compound, please.
Quick one: MIC for Nc1nc(/C(=N/O)C(=O)N[C@@H]2C(=O)N3C(C(=O)O)=C(Sc4ccncc4CSCCNC=O)CS[C@H]23)c(Cl)s1 [Cmpd 63, trifluoroacetic acid salt] ?
0.25
